molecular target: Atrial natriuretic peptide receptor 1 (Homo sapiens) (UniProt P16066); assay: Natriuretic polypeptide receptor (hNpr1) antagonism - Primary qHTS; settings: HEK293 hNpr1 GloSensor cGMP, ANP-stimulated luminescence; series mostly up to 46.3 µM; note: nearly all actives have a fitted effect of over 60% in size
Sequence (P16066 whole entry, looked up): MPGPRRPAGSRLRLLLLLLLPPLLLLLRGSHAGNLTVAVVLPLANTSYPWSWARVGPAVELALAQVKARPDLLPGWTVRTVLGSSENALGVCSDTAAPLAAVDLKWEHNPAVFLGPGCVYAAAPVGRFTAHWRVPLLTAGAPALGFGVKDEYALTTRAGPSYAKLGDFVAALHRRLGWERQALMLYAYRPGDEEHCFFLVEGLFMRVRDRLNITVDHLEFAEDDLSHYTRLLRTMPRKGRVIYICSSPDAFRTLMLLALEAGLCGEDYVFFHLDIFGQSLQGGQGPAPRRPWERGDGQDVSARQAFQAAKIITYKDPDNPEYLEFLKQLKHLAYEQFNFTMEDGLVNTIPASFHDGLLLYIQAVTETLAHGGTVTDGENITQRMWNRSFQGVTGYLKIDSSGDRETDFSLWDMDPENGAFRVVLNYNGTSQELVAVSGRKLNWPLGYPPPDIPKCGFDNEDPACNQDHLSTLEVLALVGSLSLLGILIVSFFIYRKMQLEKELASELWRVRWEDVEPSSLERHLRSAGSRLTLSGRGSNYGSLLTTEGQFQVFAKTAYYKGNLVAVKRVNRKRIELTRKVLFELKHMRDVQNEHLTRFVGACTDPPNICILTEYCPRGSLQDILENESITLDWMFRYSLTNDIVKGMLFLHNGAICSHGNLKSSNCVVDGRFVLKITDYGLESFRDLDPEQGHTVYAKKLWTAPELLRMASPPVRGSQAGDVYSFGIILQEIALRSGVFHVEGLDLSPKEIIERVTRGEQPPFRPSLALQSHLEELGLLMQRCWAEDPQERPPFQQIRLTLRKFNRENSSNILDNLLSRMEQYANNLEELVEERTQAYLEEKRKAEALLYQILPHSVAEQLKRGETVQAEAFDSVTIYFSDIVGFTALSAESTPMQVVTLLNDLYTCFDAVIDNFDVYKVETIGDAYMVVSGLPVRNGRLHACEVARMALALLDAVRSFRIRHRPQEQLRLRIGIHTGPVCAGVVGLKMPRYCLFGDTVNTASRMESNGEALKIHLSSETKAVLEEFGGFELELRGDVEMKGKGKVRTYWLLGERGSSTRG
The whole screen tested about 76,000 compounds, of which about 1,200 (1.6%) were called active. Another 4% or so got no clear call; they are omitted. This excerpt belongs to a sample that is enriched for actives.

SMILES RECORD: COc1ccc(-c2cc(N3CCN(C(=O)c4ccncc4)CC3)n[nH]2)cc1
outcome: inactive
--
SMILES RECORD: Cc1cnc(CC2CCN(C(=O)c3cccc4[nH]ccc34)CC2)n1CC1CC1
outcome: inactive
--
SMILES RECORD: O=C(c1ccccc1)N1CCOc2ccc(CN3CCc4ccccc4C3)cc2C1
outcome: inactive

---

target: Atrial natriuretic peptide receptor 1 (Homo sapiens) (UniProt P16066); experiment: Natriuretic polypeptide receptor (hNpr1) antagonism - Primary qHTS; details: HEK293 hNpr1 GloSensor cGMP, ANP-stimulated luminescence; series mostly up to 46.3 µM; note: nearly all actives have a fitted effect of over 60% in size
About 1,200 (1.6%) of roughly 76,000 compounds were called active. Not shown: some 4% with an inconclusive outcome. Calls come from the whole dose curve. This is one part of a sample in which actives are shown more often than they occur.
Labels: active, inactive

COMPOUND: Cc1noc(C)c1C(=O)N1CCCC(CCc2ccc(F)cc2F)C1 (stereo unspecified)
CLASS NAME: inactive
//
COMPOUND: COc1ccccc1-c1onc(C)c1C(=O)NCc1ccc(Cl)cc1
CLASS NAME: inactive
//
COMPOUND: O=C(Nc1ccc(-c2nnc3n2CCCC3)cc1)c1ccsc1
CLASS NAME: inactive
//
COMPOUND: Cc1ccc(OCc2nc(C3CCN(C(=O)c4c5c(nc6ccccc46)CCCC5)CC3)no2)cc1
CLASS NAME: inactive
//
COMPOUND: CN(C)Cc1nnc(C2CC(NC(=O)c3cn4cccnc4n3)C2)n1C (stereo unspecified)
CLASS NAME: inactive
//
COMPOUND: CC(C)(C)CC(=O)N1CC[C@H](NC(=O)Nc2ccc(F)cc2F)[C@H]1C(=O)N[C@H](Cc1ccccc1)C(N)=O
CLASS NAME: inactive
//
COMPOUND: COc1ccccc1C(=O)N1CCC2(CC1)CC(=O)c1ccccc1O2
CLASS NAME: inactive
//
COMPOUND: Cc1cc(CNC(=O)c2ccc(-c3ccccc3Cl)o2)n(C)n1
CLASS NAME: active
//
COMPOUND: CC1Oc2ccc(NC(=O)c3ccc([N+](=O)[O-])cc3)cc2CN(Cc2ccccc2)C1=O (stereo unspecified)
CLASS NAME: inactive
//
COMPOUND: O[C@H]1CC[C@@H](Cc2cc(-c3ccccc3)on2)O[C@@H]1CNCc1ccccc1
CLASS NAME: inactive
//
COMPOUND: COCC(=O)NC[C@H]1CCN(Cc2cn(C)c3ccccc23)C[C@H]1N(C)C
CLASS NAME: inactive
//
COMPOUND: COc1ccc(-c2onc(C)c2C(=O)NCCC(c2ccccc2)c2ccccc2)cc1
CLASS NAME: inactive
//
COMPOUND: COc1ccccc1C(=O)N1CCCC(n2cc(-c3nc(-c4ccccc4)no3)nn2)C1 (stereo unspecified)
CLASS NAME: active
//
COMPOUND: CCCNc1cc(N2CCC(CCC(=O)NCc3ccc(Cl)cc3)CC2)ncn1
CLASS NAME: inactive
//
COMPOUND: COc1ccc(NC(=O)c2ccc3c(c2)N(C(=O)c2ccc(F)cc2)CC3)c(C)c1
CLASS NAME: inactive
//
COMPOUND: O=C(COc1ccc(F)cc1)NC1CCN(c2cn[nH]c(=O)c2)CC1
CLASS NAME: inactive
//
COMPOUND: CN1CCCC2(CCN(C(=O)c3cccc(N4CCCC4=O)c3)C2)C1=O (stereo unspecified)
CLASS NAME: inactive
//
COMPOUND: CCOc1cccc(-c2nnc(CCC(=O)NCCC(C)C)c(=O)[nH]2)c1
CLASS NAME: inactive
//
COMPOUND: CC(=O)NC1(C)CN(Cc2ccc(-c3ccc4c(ccn4C)c3)s2)C1
CLASS NAME: active
//
COMPOUND: Cn1cnc(S(=O)(=O)N2CCCC(Cc3noc(-c4cnccn4)n3)C2)c1 (stereo unspecified)
CLASS NAME: inactive
//
COMPOUND: CC1(C)C[C@H](NC(=O)c2ccc(C#N)cc2)[C@@]2(CCC(=O)NCCc3c[nH]c4ccccc34)CC[C@](C)(O)C[C@@H]12
CLASS NAME: inactive
//
COMPOUND: Cc1nc(-c2cn(C3CCCN(C(=O)c4cc(F)ccc4F)C3)nn2)no1 (stereo unspecified)
CLASS NAME: inactive
//
COMPOUND: Cc1ccc(OCc2nc(C3CCN(C(=O)c4noc(C)c4CN4CCCCC4)CC3)no2)cc1
CLASS NAME: inactive
//
COMPOUND: O=C(NCc1nnc2cc(-c3nc(C4CC4)no3)ccn12)c1ccc(F)cc1Cl
CLASS NAME: active
//
COMPOUND: COc1cccc(-c2cc(-c3nc(C4CCOC4)no3)[nH]n2)c1 (stereo unspecified)
CLASS NAME: inactive
//
COMPOUND: Fc1ccc(-c2cnc3n[nH]c(-c4ccc5c(c4)OCO5)c3n2)cc1
CLASS NAME: inactive
//
COMPOUND: O=C1N(Cc2ccc(F)cc2)C[C@H]2CN(Cc3ccncc3F)CCN12
CLASS NAME: inactive
//
COMPOUND: CN(CCc1cn[nH]c1)c1ccc(-c2nc(-c3ccccc3F)no2)cn1
CLASS NAME: active
//
COMPOUND: O=C(NC[C@H]1O[C@H](Cc2cc(-c3ccccc3)on2)CC[C@@H]1O)C1CCC1
CLASS NAME: inactive
//
COMPOUND: CN1CCCCCC(O)c2cc(C(=O)NCc3ccc(F)cc3)ccc21 (stereo unspecified)
CLASS NAME: inactive
//
COMPOUND: Oc1ccc(-c2ccc(-c3nc(CCc4ccccc4)no3)cn2)cc1
CLASS NAME: inactive
//
COMPOUND: COc1ccc(CNC(=O)c2cccc3c2CCN3C(=O)c2ccc(F)cc2)cc1OC
CLASS NAME: active
//
COMPOUND: Cc1nc(-c2ccncc2)ncc1C(C)Nc1ncnc(C)c1C (stereo unspecified)
CLASS NAME: active
//
COMPOUND: O=C(c1ccoc1)N1CCOc2ccc(CN3CCc4ccccc4C3)cc2C1
CLASS NAME: inactive
//
COMPOUND: Cc1ccc(OCc2nc(C3CCN(C(=O)CCc4nc5ccc(Cl)cc5[nH]4)CC3)no2)cc1
CLASS NAME: active
//
COMPOUND: Cc1c[nH]c(CN2CCCC(CCc3ccc(F)cc3F)C2)c(C)c1=O (stereo unspecified)
CLASS NAME: active
//
COMPOUND: O=C(c1ccc(F)cc1Cl)N1CCC(n2cc(-c3nc(-c4ccccc4)no3)nn2)C1 (stereo unspecified)
CLASS NAME: active
//
COMPOUND: COc1cccc(CN2CCc3c(cc(C(=O)NCCN4CCCCC4)n3C)C2)c1
CLASS NAME: inactive
//
COMPOUND: CCOc1ccccc1C(=O)N1CCC(c2n[nH]c(=O)n2-c2ccc(C)cc2)CC1
CLASS NAME: inactive
//
COMPOUND: COc1ccc(-c2cc(CC3(NCc4cccc(OC)c4)COC3)no2)cc1
CLASS NAME: inactive
//
COMPOUND: CCOc1ccccc1C(=O)NCc1nnc2cc(-c3nc(C)no3)ccn12
CLASS NAME: inactive
